The origin of these recorded values is ChEMBL document CHEMBL1130974.

# assay_summary: Maximal plasma drug concentration was determined
# Type: ADME, organism-based
# assay_conditions: rat
endpoint_label: Cmax (ng/mL)
Answers are plain numbers, in ng/mL.

Please report Cmax for the following molecule: CN(Cc1n[nH]c(O)n1)[C@H](COCc1cc(C(F)(F)F)cc(C(F)(F)F)c1)c1ccccc1
97
